Tested on: HCV replicon 1AY93H
Assay notes: microbe, parasite or virus in culture
Assay type: cell-based, Hepatitis C virus (HCV)
Stated conditions: read-out: 1A Y93H IC50; HCV replicon 1A Y93H; Replicon Assay A
Quantity measured: IC50 (nM)
Numeric answer only, unit nM assumed.

compound="COC(=O)N[C@H](C(=O)N1CCC[C@H]1c1ncc(-c2cc(F)c3c(c2)OC(c2cc4ccccc4s2)n2c-3cc3cc(-c4cnc([C@@H]5C[C@H]6C[C@H]6N5C(=O)[C@@H](NC(=O)OC)C(C)C)[nH]4)ccc32)[nH]1)C(C)C (single isomer, unassigned) [Compound 614]" meas_value=2.21
compound="COC(=O)N[C@H](C(=O)N1C[C@H](F)C[C@H]1c1ncc(-c2ccc3c(c2)cc2n3C(c3cc4ccccc4s3)Oc3cc(-c4cnc([C@@H]5CCCN5C(=O)[C@@H](NC(=O)OC)C5CCOCC5)[nH]4)ccc3-2)[nH]1)C(C)C (single isomer, unassigned) [Compound 624]" meas_value=0.494
compound="COC(=O)N[C@H](C(=O)N1CCC[C@H]1c1ncc(-c2cc(F)c3c(c2)OC(c2cc4c(s2)CCC4)n2c-3cc3cc(-c4cnc([C@@H]5C[C@H]6C[C@H]6N5C(=O)[C@@H](NC(=O)OC)C5CCOCC5)[nH]4)ccc32)[nH]1)C(C)C (single isomer, unassigned) [Compound 542]" meas_value=0.00855
compound="COC(=O)N[C@H](C(=O)N1CCC[C@H]1c1ncc(-c2ccc3c(c2)OC(c2cc4ccccc4s2)n2c-3cc3cc(-c4cnc([C@@H]5C[C@@H](F)CN5C(=O)[C@@H](NC(=O)OC)C5CCOCC5)[nH]4)ccc32)[nH]1)C(C)C (single isomer, unassigned) [Compound 626]" meas_value=0.013
compound="COC(=O)N[C@H](C(=O)N1CCC[C@H]1c1ncc(-c2cc(F)c3c(c2)OC(c2cc4c(s2)CCCO4)n2c-3cc3cc(-c4cnc([C@@H]5CCCN5C(=O)[C@@H](NC(=O)OC)C5CCOC(C)(C)C5)[nH]4)ccc32)[nH]1)C(C)C (single isomer, unassigned) [Compound 412]" meas_value=0.008
compound="COC(=O)N[C@H](C(=O)N1CCC[C@H]1c1ncc(-c2cc(F)c3c(c2)OC(c2cc4c(s2)CCC4)n2c-3cc3cc(-c4cnc([C@@H]5C[C@H]6C[C@H]6N5C(=O)[C@@H](NC(=O)OC)C5C[C@@H](C)O[C@@H](C)C5)[nH]4)ccc32)[nH]1)C(C)C (single isomer, unassigned) [Compound 551]" meas_value=0.0167
compound="COC(=O)N[C@H](C(=O)N1CCC[C@H]1c1ncc(-c2ccc3c(c2)OC(c2ccc(C4CC4)s2)n2c-3c(F)c3cc(-c4cnc([C@@H]5C[C@H]6C[C@H]6N5C(=O)[C@@H](NC(=O)OC)C(C)C)[nH]4)ccc32)[nH]1)C(C)C (single isomer, unassigned) [Compound 612]" meas_value=0.469
compound="COC(=O)NC(C(=O)N1CCC[C@H]1c1ncc(-c2ccc3c(c2)cc2n3C(c3ccc(C4CC4)s3)Oc3cc(-c4cnc([C@@H]5CCCN5C(=O)[C@@H](NC(=O)OC)C(C)C)[nH]4)cc(F)c3-2)[nH]1)C1CC(C)(C)OC(C)(C)C1 (single isomer, unassigned) [Compound 420]" meas_value=3.13

Please report the recorded IC50 for COC(=O)N[C@H](C(=O)N1CCC[C@H]1c1ncc(-c2ccc3c(c2)OC(c2cc(C)c(C)s2)n2c-3cc3cc(-c4cnc([C@@H]5C[C@H]6C[C@H]6N5C(=O)[C@@H](NC(=O)OC)C(C)C)[nH]4)ccc32)[nH]1)C(C)C (single isomer, unassigned) [Compound 503] .
1.76

Please report the recorded IC50 for COC(=O)N[C@H](C(=O)N1CCC[C@H]1c1ncc(-c2cc(F)c3c(c2)OC(c2cc(C)c(C)s2)n2c-3cc3cc(-c4cnc([C@@H]5C[C@@H](F)CN5C(=O)[C@@H](NC(=O)OC)C(C)C)[nH]4)ccc32)[nH]1)C(C)C (single isomer, unassigned) [Compound 515] .
6.54

Please report the recorded IC50 for COC(=O)NC(C(=O)N1CCC[C@H]1c1ncc(-c2ccc3c(c2)cc2n3C(c3ccc(C4CC4)s3)Oc3cc(-c4cnc([C@@H]5C[C@H]6C[C@H]6N5C(=O)[C@@H](NC(=O)OC)C(C)C)[nH]4)cc(F)c3-2)[nH]1)C1C[C@@H](C)O[C@@H](C)C1 (single isomer, unassigned) [Compound 537] .
0.114

Please report the recorded IC50 for COC(=O)N[C@H](C(=O)N1CCC[C@H]1c1ncc(-c2cc(C)c3c(c2)OC(c2ccc(C4CC4)s2)n2c-3cc3cc(-c4cnc([C@@H]5C[C@H]6C[C@H]6N5C(=O)[C@@H](NC(=O)OC)C(C)C)[nH]4)ccc32)[nH]1)C(C)C (single isomer, unassigned) [Compound 755] .
0.022

Please report the recorded IC50 for COC(=O)N[C@H](C(=O)N1CCC[C@H]1c1ncc(-c2cc(F)c3c(c2)OC(c2cc(C)c(C)s2)n2c-3cc3cc(-c4cnc([C@@H]5C[C@@H](F)CN5C(=O)[C@@H](NC(=O)OC)C(C)C)[nH]4)ccc32)[nH]1)C(C)C (single isomer, unassigned) [Compound 516] .
0.0114

Please report the recorded IC50 for COC(=O)NC(C(=O)N1CCC[C@H]1c1ncc(-c2ccc3c(c2)cc2n3C(c3ccc(CC4CC4)s3)Oc3cc(-c4cnc([C@@H]5CCCN5C(=O)[C@@H](NC(=O)OC)C(C)C)[nH]4)cc(F)c3-2)[nH]1)C1CCOC(C)(C)C1 (single isomer, unassigned) [Compound 407] .
0.258
